B1: RAB22A (parent)
chain: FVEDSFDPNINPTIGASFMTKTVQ

Variants of: B1
Assay: protein stability index of a GFP-peptide fusion (GPS, HEK-293T) (PSI 1-6); higher = more stable;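 note: lentivirally expressed fusions sorted by FACS into six bins by GFP to DsRed ratio, PSI derived from sequencing read proportions per bin multiplied by bin number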
Conditions: c terminus: a fixed tail appended
Tick YES if protein stability index is 2 or greater. Tick NO if protein stability index is less than 2.

mutant_name=P12L group_label=NO
mutant_name=I10S group_label=YES
mutant_name=N11G group_label=YES
mutant_name=P12H group_label=YES
mutant_name=D4S group_label=NO
mutant_name=Q24Y group_label=YES
mutant_name=V23I group_label=YES
mutant_name=T20L group_label=NO
mutant_name=T13S group_label=YES
mutant_name=N11Y group_label=YES
mutant_name=V23G group_label=YES
mutant_name=F18N group_label=YES
mutant_name=D7V group_label=NO
mutant_name=S17L group_label=NO
mutant_name=G15P group_label=YES
mutant_name=I14Y group_label=YES
mutant_name=F1T group_label=YES
mutant_name=D4L group_label=YES
mutant_name=K21S group_label=YES
mutant_name=K21L group_label=YES
mutant_name=S5E group_label=YES
mutant_name=K21I group_label=YES
mutant_name=N9C group_label=YES
mutant_name=D4V group_label=YES
mutant_name=F18A group_label=YES
mutant_name=N9Y group_label=NO
mutant_name=V23Y group_label=YES
mutant_name=T20F group_label=NO
mutant_name=M19C group_label=YES
mutant_name=P8E group_label=YES
mutant_name=K21Q group_label=YES
mutant_name=P12T group_label=YES
mutant_name=D4I group_label=YES
mutant_name=F1I group_label=YES
mutant_name=S5T group_label=YES
mutant_name=G15A group_label=YES
mutant_name=V23D group_label=YES
mutant_name=A16V group_label=NO
mutant_name=I14A group_label=YES
mutant_name=T13V group_label=YES
mutant_name=M19V group_label=YES
mutant_name=D4R group_label=NO
mutant_name=F18S group_label=YES
mutant_name=P8V group_label=YES
